All values here come from patent USRE46604E1.

assay: Fluvoxamine co-administration pharmacokinetic study; type: in vivo, human; conditions: both sexes, human, in vivo; Day 1: 5.667 mg tasimelteon alone
value type: AUC(0-inf) (ng·h/mL)

1) CCC(=O)NC[C@@H]1CC1c1cccc(O)c1CC(=O)O (stereo partly drawn)
104

A. CCC(=O)NC[C@@H]1C[C@H]1c1cccc2c1CCO2 (relative stereo)
B. CCC(=O)NC[C@@H]1CC1c1cccc(O)c1CCO (stereo partly drawn)
Problem: Lab note: check whether A or B shows the higher recorded AUC(0-inf). Please reply using the label of the selected record.
Solution: A

* * *

experiment: Fluvoxamine co-administration pharmacokinetic study; type: in vivo, human; conditions: both sexes, human, in vivo; Day 1: 5.667 mg tasimelteon alone; read-out: t½ (converted)
value type: half-life (h)
Kindly answer with a numeric value in h, unit omitted.

Problem: What value of half-life has been recorded for this entry: CCC(=O)NC[C@@H]1C[C@H]1c1cccc2c1CCO2 (relative stereo) [Tasimelteon]
Solution: 1.2
